Target: LRRK2 (G2019S) (Homo sapiens, UniProt Q5S007, G2019S)
Construct: Recombinant GST-LRRK2 (delta970), purified from baculovirus infected insect cells (SF9); GST (N)
Sequence (Q5S007 970-2527 G2019S limits assumed): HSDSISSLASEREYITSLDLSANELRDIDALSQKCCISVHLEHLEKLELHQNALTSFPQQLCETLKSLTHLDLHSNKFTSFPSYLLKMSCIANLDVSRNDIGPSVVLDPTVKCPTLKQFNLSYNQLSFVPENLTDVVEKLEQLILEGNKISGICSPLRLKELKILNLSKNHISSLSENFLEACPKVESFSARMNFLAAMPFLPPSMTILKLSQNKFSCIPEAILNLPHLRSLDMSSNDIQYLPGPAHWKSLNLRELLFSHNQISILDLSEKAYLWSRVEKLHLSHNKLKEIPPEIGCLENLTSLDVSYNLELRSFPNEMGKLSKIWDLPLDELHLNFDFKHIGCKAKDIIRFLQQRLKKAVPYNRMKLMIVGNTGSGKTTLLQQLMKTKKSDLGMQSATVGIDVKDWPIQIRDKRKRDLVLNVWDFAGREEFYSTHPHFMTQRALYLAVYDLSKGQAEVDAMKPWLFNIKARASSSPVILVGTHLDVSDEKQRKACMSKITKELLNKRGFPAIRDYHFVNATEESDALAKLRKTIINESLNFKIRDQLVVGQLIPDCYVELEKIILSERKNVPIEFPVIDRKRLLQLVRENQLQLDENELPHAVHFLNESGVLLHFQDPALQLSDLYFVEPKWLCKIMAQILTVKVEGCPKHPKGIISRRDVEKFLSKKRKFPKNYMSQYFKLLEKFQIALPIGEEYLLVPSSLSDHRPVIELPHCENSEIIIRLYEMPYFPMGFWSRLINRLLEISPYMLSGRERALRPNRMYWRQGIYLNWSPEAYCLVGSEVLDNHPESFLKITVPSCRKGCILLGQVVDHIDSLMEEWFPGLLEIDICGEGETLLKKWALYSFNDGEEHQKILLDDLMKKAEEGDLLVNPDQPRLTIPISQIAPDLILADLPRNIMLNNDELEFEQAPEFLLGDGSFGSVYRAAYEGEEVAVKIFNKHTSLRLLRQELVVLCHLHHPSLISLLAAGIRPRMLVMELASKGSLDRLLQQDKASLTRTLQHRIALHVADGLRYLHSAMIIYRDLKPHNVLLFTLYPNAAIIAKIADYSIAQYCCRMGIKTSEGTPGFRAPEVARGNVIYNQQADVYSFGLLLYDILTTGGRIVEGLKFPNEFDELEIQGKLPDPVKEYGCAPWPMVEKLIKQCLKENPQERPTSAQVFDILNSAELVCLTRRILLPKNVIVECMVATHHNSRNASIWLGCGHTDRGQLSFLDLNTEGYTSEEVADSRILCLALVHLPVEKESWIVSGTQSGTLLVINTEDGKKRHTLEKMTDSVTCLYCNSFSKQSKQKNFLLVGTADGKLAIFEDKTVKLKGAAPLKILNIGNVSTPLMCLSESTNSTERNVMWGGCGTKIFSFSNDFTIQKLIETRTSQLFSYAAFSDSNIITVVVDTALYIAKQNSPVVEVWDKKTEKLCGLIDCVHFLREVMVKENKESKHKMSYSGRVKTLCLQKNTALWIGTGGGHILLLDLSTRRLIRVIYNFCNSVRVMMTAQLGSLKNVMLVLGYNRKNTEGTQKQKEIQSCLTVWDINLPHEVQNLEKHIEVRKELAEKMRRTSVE
Assay: LRRK2 inhibition, radiometric kinase assay with recombinant GST-LRRK2 (delta970) and peptide substrate
Details: GST-LRRK2 (delta970) G2019S 30 nM, ATP ~52 μM (Km), 30 min at 30° C.
pIC50: −log10 of the molar value.
Measured pIC50 values are reported for all entries that follow.

Record excerpt, results attached:
Molecule | pIC50
CC(Sc1ccc2nnc(-c3cscn3)n2n1)C(=O)N1CCCC1 (stereo not shown) | 6.00 to 7.00
CCC(Sc1ccc2nnc(-c3ccc(C(F)(F)F)cc3)n2n1)C(=O)O (stereo not shown) | ≤ 5.30
CCC(Sc1ccc2nnc(-c3cccs3)n2n1)C(=O)N1CCC1 (stereo not shown) | 6.00 to 7.00

Here is another molecule to look at.
Query block: Endpoint output: pIC50 of CC(Sc1ccc2nnc(-c3cnccn3)n2n1)C(=O)N1CCCCC1 (stereo not shown) . Value?
Result block: 6.00 to 7.00

Value source: patent US9187484B2
